Reported BTK_I_binding pIC50 by item:
- target-entity: unphosphorylated-BTK kinase domain (UP-BTK), GST-tagged human BTK (389-659aa) (Homo sapiens (Human), UniProt Q06187)
- Sequence (Q06187 389-659): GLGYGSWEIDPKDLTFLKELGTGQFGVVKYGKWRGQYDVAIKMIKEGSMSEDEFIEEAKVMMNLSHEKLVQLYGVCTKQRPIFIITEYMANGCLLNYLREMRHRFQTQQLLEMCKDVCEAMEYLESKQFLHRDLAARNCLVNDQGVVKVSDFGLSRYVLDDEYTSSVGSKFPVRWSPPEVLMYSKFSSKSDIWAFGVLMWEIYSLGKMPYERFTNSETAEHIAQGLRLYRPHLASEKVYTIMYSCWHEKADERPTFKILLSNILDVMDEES
- assay-procedure: BTK kinase Lanthascreen binding assay
- settings: Lanthascreen tracer competition, 60 minutes incubation; pIC50 = negative log of the IC50 in molar

Guide cases for BTK_I_binding pIC50, answers given:
CCC(=O)N1CCC[C@@H](NC(=O)c2sc3nccc4c3c2NC(=O)N4c2ccc(Oc3ccccn3)cc2)C1 [Example 807]; <6
CC(C)(C)c1cccc(N2C(=O)Nc3c(C(=O)N[C@@H]4CCCNC4)sc4nccc2c34)c1 [Example 646]; <5
CC(C)(C)OC(=O)N1CCC[C@@H](NC(=O)c2sc3nccc4c3c2NC(=O)N4c2ccc(S(=O)(=O)C(C)(C)C)cc2)C1 [Example 651]; <5
Cc1cc(OC2CCCC2)ncc1N1C(=O)Nc2c(C(=O)N[C@@H]3CCCNC3)sc3nccc1c23 (single isomer, unassigned) [Example 762]; <6
C=CC(=O)N1CCC[C@@H](NC(=O)c2sc3nccc4c3c2NC(=O)N4c2ccc(OC3CCOCC3)nc2C)C1 [Example 770]; <6

Please find the next molecule below.
**Query** Which BTK_I_binding pIC50 is reported for this molecule? O=C(N[C@@H]1CCCNC1)c1sc2nccc3c2c1NC(=O)N3c1ccnc(C2CCCCC2)c1 [Example 731]
**Result** <6

---

- target-entity: unphosphorylated-BTK kinase domain (UP-BTK), GST-tagged human BTK (389-659aa) (Homo sapiens (Human), UniProt Q06187)
- assay-procedure: BTK kinase Lanthascreen binding assay
- settings: unphosphorylated-BTK kinase domain, 50 nM Tracer 236, 60 minutes; pIC50 = negative log of the IC50 in molar
property-label: BTK_I_binding pIC50
Answer with a number only.

**Query** Would you kindly share the measured BTK_I_binding pIC50 for CCC(=O)N1CCC[C@@H](NC(=O)c2sc3nccc4c3c2NC(=O)N4c2ccc(OC(C)C)cc2)C1 ?
**Result** 5.2

**Query** What value of measured BTK_I_binding pIC50 is listed for C=CC(=O)N1CC[C@@H](NC(=O)c2sc3nccc4c3c2NC(=O)N4c2cccc(-c3ccccc3)c2)C1 ?
**Result** 7.5

**Query** Any idea what its BTK_I_binding pIC50 is? The molecule is C=CC(=O)N1CCC[C@@H](NC(=O)c2sc3nccc4c3c2NC(=O)N4c2cnc(Oc3ccccc3)cn2)C1
**Result** 7.8

**Query** Need BTK_I_binding pIC50, item C=CC(=O)N1CCC[C@@H](NC(=O)c2sc3nccc4c3c2NC(=O)N4c2cc(-c3ccccc3)ccn2)C1
**Result** 7.6

---

- target-entity: unphosphorylated-BTK kinase domain (UP-BTK), GST-tagged human BTK (389-659aa) (Homo sapiens (Human), UniProt Q06187)
- assay-procedure: BTK kinase Lanthascreen binding assay
- settings: unphosphorylated-BTK kinase domain, 50 nM Tracer 236, 60 minutes; pIC50 = negative log of the IC50 in molar
- Experimental: BTK Kinase Lanthascreen Binding Assay: A BTK kinase lanthascreen binding assay monitors compound binding to unphosphorylated-BTK kinase domain (UP-BTK), by competing with a fluorescent labeled tracer. […] Data were analyzed using Xlfit™ version 5.3 from ID Business Solutions (Guildford), Microsoft Excel add-in. pIC50 refers to the negative log of the IC50 in molar
Label key: criterion met means BTK_I_binding pIC50 under 7; criterion not met means BTK_I_binding pIC50 of 7 or more.

Cc1cc(OC2CC2)ccc1N1C(=O)Nc2c(C(=O)N[C@@H]3CCCN(C)C3)sc3nccc1c23; criterion met

**Query** Could you please tell me whether BTK_I_binding pIC50 recorded for O=C(N[C@@H]1CCCNC1)c1sc2nccc3c2c1NC(=O)N3c1ccnc(-c2ccccc2)c1 is less than 7?
**Result** criterion met

**Query** Decide: BTK_I_binding pIC50 of Cc1cc(Oc2ccccc2)ccc1N1C(=O)Nc2c(C(=O)N[C@@H]3CCN(C(=O)/C=C/CN)C3)sc3nccc1c23 (single isomer, unassigned) [Example 520] strictly below 7?
**Result** criterion not met

**Query** Take the compound C=CC(=O)N1CC[C@@H](NC(=O)c2sc3nccc4c3c2NC(=O)N4c2ccc(Oc3ccccc3)cc2)C1 and say whether its BTK_I_binding pIC50 is less than 7.
**Result** criterion not met

**Query** Hello, is BTK_I_binding pIC50 of the following compound strictly smaller than 7? CN1CC[C@@H](NC(=O)c2sc3nccc4c3c2NC(=O)N4Cc2ccc(Oc3ccccc3)cc2)C1
**Result** criterion met

**Query** Please let me know if CC(C)N1C(=O)Nc2c(C(=O)N[C@@H]3CCCNC3)sc3nccc1c23 shows BTK_I_binding pIC50 below 7.
**Result** criterion met

**Query** Lab note: BTK_I_binding pIC50 threshold 7. Does this compound come in strictly under it? Cc1ccc(N2C(=O)Nc3c(C(=O)N[C@@H]4CCCNC4)sc4nccc2c34)cc1C(F)(F)F
**Result** criterion met

**Query** Dear colleague, could you confirm whether BTK_I_binding pIC50 of O=C(N[C@@H]1CCCNC1)c1sc2nccc3c2c1NC(=O)N3c1ccc(Cl)c(Cl)c1 falls below 7? Thanks.
**Result** criterion met

**Query** Below 7 on BTK_I_binding pIC50? Entry CNC/C=C/C(=O)N1CC[C@@H](NC(=O)c2sc3nccc4c3c2NC(=O)N4c2ccc(Oc3ccccc3)cc2C)C1 [Example 377]
**Result** criterion not met

**Query** Is BTK_I_binding pIC50 strictly under 7 for the entry CC(C)=C(Cl)C(=O)N1CCC[C@@H](NC(=O)c2sc3nccc4c3c2NC(=O)N4c2ccc(Oc3ccccc3)cc2C)C1 (single isomer, unassigned) [Example 439] ?
**Result** criterion met
